B1: Protein PTHB1 (Homo sapiens), Q3SYG4 (parent)
chain: MSLFKARDWWSTILGDKEEFDQGCLCLANVDNSGNGQDKIIVGSFMGYLRIFSPHPAKTGDGAQAEDLLLEVDLRDPVLQVEVGKFVSGTEMLHLAVLHSRKLCVYSVSGTLGNVEHGNQCQMKLMYEHNLQRTACNMTYGSFGGVKGRDLICIQSMDGMLMVFEQESYAFGRFLPGFLLPGPLAYSSRTDSFLTVSSCQQVESYKYQVLAFATDADKRQETEQQKLGSGKRLVVDWTLNIGEQALDICIVSFNQSASSVFVLGERNFFCLKDNGQIRFMKKLDWSPSCFLPYCSVSEGTINTLIGNHNNMLHIYQDVTLKWATQLPHIPVAVRVGCLHDLKGVIVTLSDDGHLQCSYLGTDPSLFQAPNVQSRELNYDELDVEMKELQKIIKDVNKSQGVWPMTEREDDLNVSVVVSPNFDSVSQATDVEVGTDLVPSVTVKVTLQNRVILQKAKLSVYVQPPLELTCDQFTFEFMTPDLTRTVSFSVYLKRSYTPSELEGNAVVSYSRPTDRNPDGIPRVIQCKFRLPLKLICLPGQPSKTASHKITIDTNKSPVSLLSLFPGFASQSDDDQVNVMGFHFLGGARITVLASKTSQRYRIQSEQFEDLWLITNELILRLQEYFEKQGVKDFACSFSGSIPLQEYFELIDHHFELRINGEKLEELLSERAVQFRAIQRRLLARFKDKTPAPLQHLDTLLDGTYKQVIALADAVEENQGNLFQSFTRLKSATHLVILLIALWQKLSADQVAILEAAFLPLQEDTQELGWEETVDAAISHLLKTCLSKSSKEQALNLNSQLNIPKDTSQLKKHITLLCDRLSKGGRLCLSTDAAAPQTMVMPGGCTTIPESDLEERSVEQDSTELFTNHRHLTAETPRPEVSPLQGVSE
partner: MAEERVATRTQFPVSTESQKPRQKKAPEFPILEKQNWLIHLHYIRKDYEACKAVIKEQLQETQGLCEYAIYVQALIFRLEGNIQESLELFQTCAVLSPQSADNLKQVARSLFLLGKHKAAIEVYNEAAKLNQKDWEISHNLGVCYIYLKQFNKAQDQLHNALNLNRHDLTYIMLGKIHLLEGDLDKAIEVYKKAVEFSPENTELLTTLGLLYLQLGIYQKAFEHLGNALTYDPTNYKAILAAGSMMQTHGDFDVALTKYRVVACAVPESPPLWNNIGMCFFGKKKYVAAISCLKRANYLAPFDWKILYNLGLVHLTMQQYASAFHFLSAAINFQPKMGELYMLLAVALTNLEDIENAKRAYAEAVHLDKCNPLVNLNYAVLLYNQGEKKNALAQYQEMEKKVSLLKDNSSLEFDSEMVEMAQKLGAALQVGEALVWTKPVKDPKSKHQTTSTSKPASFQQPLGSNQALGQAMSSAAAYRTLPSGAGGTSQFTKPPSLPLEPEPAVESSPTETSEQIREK

Variants of: B1
assay-context: with bbs4_human BBS4, Q96RK4
endpoint-name: effect of a mutation on the interaction

Take a look at these entries with their results.
INSERT INTO measurements (variant_string, value) VALUES
  ('A775K', 'with no effect'),
  ('T702E', 'with no effect'),
  ('D686A', 'with no effect'),
  ('W741A', 'with no effect'),
  ('R493K', 'with no effect'),
  ('K630A', 'with no effect');

Now for the variant whose effect of a mutation on the interaction we want.
In plain terms, F721E has a documented effect of a mutation on the interaction of with no effect
